# System: IGROV-1
# experiment: SRB colorimetric assay of cell growth and viability, IGROV-1
# Assay type: cell-based, human
# experimentalParameters: 48 hours exposure, SRB
measuredEndpoint: GI50

Lookup result for C/C=C1\NC(=O)[C@H](Cc2ccccc2)NC(=O)[C@@H](C(C)C)NC(=O)[C@@H]([C@@H](C)CC)NC(=O)[C@H](NC(=O)[C@H](NC(=O)[C@H](CCCN)NC(=O)[C@H]2CCCN2C(=O)[C@H](NC(=O)[C@@H](NC(=O)[C@@H](NC(=O)[C@H](NC(=O)CC[C@@H](C)[C@H]2CC[C@H]3[C@@H]4CC[C@@H]5C[C@H](OC(=O)C(F)(F)F)CC[C@]5(C)[C@H]4CC[C@]23C)C(C)C)[C@@H](C)OC(=O)C(F)(F)F)C(C)C)C(C)C)[C@@H](C)CC)[C@@H](C)OC(=O)[C@H](C(C)C)NC1=O ; measured GI50: 0.244 µM

---

# System: SK-MEL-28
# experiment: SRB colorimetric assay of cell growth and viability, SK-MEL-28
# Format: cell-based, human
# experimentalParameters: 48 hours exposure
measuredEndpoint: GI50 (nM)
# output: bare number, implied unit nM

Recorded results for 2 molecules are shown here.
- molecule: "C/C=C1\\NC(=O)[C@H](Cc2ccccc2)NC(=O)[C@@H](C(C)C)NC(=O)[C@@H]([C@@H](C)CC)NC(=O)[C@H](NC(=O)[C@H](NC(=O)[C@H](CCCN)NC(=O)[C@H]2CCCN2C(=O)[C@H](NC(=O)[C@@H](NC(=O)[C@@H](NC(=O)[C@H](NC(=O)CCCCC(C)(F)F)C(C)C)[C@@H](C)O)C(C)C)C(C)C)[C@@H](C)CC)[C@@H](C)OC(=O)[C@H](C(C)C)NC1=O [Compound 28, [6,6-dFHep^14]-KF]"
  GI50 (nM): 1470
- molecule: "C/C=C1\\NC(=O)[C@H](Cc2ccccc2)NC(=O)[C@@H](C(C)C)NC(=O)[C@@H]([C@@H](C)CC)NC(=O)[C@H](NC(=O)[C@H](NC(=O)[C@H](CCCN)NC(=O)[C@H]2CCCN2C(=O)[C@H](NC(=O)[C@@H](NC(=O)[C@@H](NC(=O)[C@H]2CCCN2C(=O)CCCC(C)C)[C@@H](C)O)C(C)C)C(C)C)[C@@H](C)CC)[C@@H](C)OC(=O)[C@H](C(C)C)NC1=O [Compound 37, [D-Pro^13]-KF]"
  GI50 (nM): 76.6

Moving on to the next molecule.
Lookup result for C/C=C1\NC(=O)[C@H](Cc2ccccc2)NC(=O)[C@@H](C(C)C)NC(=O)[C@@H]([C@@H](C)CC)NC(=O)[C@H](NC(=O)[C@H](NC(=O)[C@H](CCCN)NC(=O)[C@H]2CCCN2C(=O)[C@H](NC(=O)[C@@H](NC(=O)[C@@H](NC(=O)CNC(=O)CCCC(C)C)[C@@H](C)O)C(C)C)C(C)C)[C@@H](C)CC)[C@@H](C)OC(=O)[C@H](C(C)C)NC1=O [Compound 33, [Gly^13]-KF] ; measured GI50: 6320

---

# Tested on: K-562
# experiment: SRB colorimetric assay of cell growth and viability, K-562
# Format: cell-based, human
# experimentalParameters: K-562; 48 hours exposure; read-out: LC50 K-562
# Protocol: The finality of this assay is to interrupt the growth of a “in vitro” tumor cell culture by means a continued exhibition of the cells to the sample to be testing. […] Cells are seeded in 96 well microtiter plates, at 5×10^3 cells per well in aliquots of 195 μL medium, and they are allowed to attach to the plate surface by growing in drug free medium for 18 hours. […] Optical densities are read on a automated spectrophotometric plate reader at a single wavelength of 490 nm. […]
Where a SMILES comes first, the peptide text is derived from it. Bridges are numbered along the chain shown (N, C = ends). [ ]: non-standard residue; d: D form. The star is where a group is joined. 2Nal = N[C@@H](Cc1ccc2ccccc2c1)C(=O)O; d(aIle) = CC[C@H](C)[C@@H](N)C(=O)O; d(aThr) = C[C@@H](O)[C@@H](N)C(=O)O; hCha = N[C@@H](CCC1CCCCC1)C(=O)O; Hexanoyl(5-Me) = CC(C)CCCC(=O)*; Phg = N[C@H](C(=O)O)c1ccccc1; Orn = NCCC[C@H](N)C(=O)O; Dhb = C/C=C(\N)C(=O)O
Define the label as 1 when CC50 is strictly less than 2000 nM and as -1 in all remaining cases.

- molecule: "C/C=C1\\NC(=O)[C@H](Cc2ccc(Cl)cc2)NC(=O)[C@@H](C(C)C)NC(=O)[C@@H]([C@@H](C)CC)NC(=O)[C@H](NC(=O)[C@H](NC(=O)[C@H](CCCN)NC(=O)[C@H]2CCCN2C(=O)[C@H](NC(=O)[C@@H](NC(=O)[C@@H](NC(=O)[C@H](NC(=O)CCCC(C)C)C(C)C)[C@@H](C)O)C(C)C)C(C)C)[C@@H](C)CC)[C@@H](C)OC(=O)[C@H](C(C)C)NC1=O [Compound 83, [Phe(4-Cl)^3]-KF]"
  studyTarget: "K-562"
  assignedCategory: 1
- molecule: "C/C=C1\\NC(=O)[C@H](Cc2ccc3ccccc3c2)NC(=O)[C@@H](C(C)C)NC(=O)[C@@H]([C@@H](C)CC)NC(=O)[C@H](NC(=O)[C@H](NC(=O)[C@H](CCCN)NC(=O)[C@H]2CCCN2C(=O)[C@H](NC(=O)[C@@H](NC(=O)[C@@H](NC(=O)[C@H](NC(=O)CCCC(C)C)C(C)C)[C@@H](C)O)C(C)C)C(C)C)[C@@H](C)CC)[C@@H](C)OC(=O)[C@H](C(C)C)NC1=O [Compound 85, [Nal^3]-KF] ({Hexanoyl(5-Me)}-[dV]TV[dV][dP][Orn][d(aIle)][d(aThr)][d(aIle)][dV][2Nal][Dhb]V; ester 8-C)"
  studyTarget: "K-562"
  assignedCategory: 1

// query Below 2000 nM on CC50? Entry C/C=C1\NC(=O)[C@H](Cc2ccccc2)NC(=O)[C@@H](C(C)C)NC(=O)[C@@H]([C@@H](C)CC)NC(=O)[C@H](NC(=O)[C@H](NC(=O)[C@H](CCCNC(=O)CCCC[C@@H]2SC[C@@H]3NC(=O)N[C@@H]32)NC(=O)[C@H]2CCCN2C(=O)[C@H](NC(=O)[C@@H](NC(=O)[C@@H](NC(=O)[C@H](NC(=O)CCCC(C)C)C(C)C)[C@@H](C)O)C(C)C)C(C)C)[C@@H](C)CC)[C@@H](C)OC(=O)[C@H](C(C)C)NC1=O [Compound 99, [Orn(Biot)^8]-Kahalalide F]
// result -1

// query Below 2000 nM on CC50? Entry C/C=C1\NC(=O)[C@H](c2ccccc2)NC(=O)[C@@H](C(C)C)NC(=O)[C@@H]([C@@H](C)CC)NC(=O)[C@H](NC(=O)[C@H](NC(=O)[C@H](CCCN)NC(=O)[C@H]2CCCN2C(=O)[C@H](NC(=O)[C@@H](NC(=O)[C@@H](NC(=O)[C@H](NC(=O)CCCC(C)C)C(C)C)[C@@H](C)O)C(C)C)C(C)C)[C@@H](C)CC)[C@@H](C)OC(=O)[C@H](C(C)C)NC1=O [Compound 87, [Phg^3]-KF] ({Hexanoyl(5-Me)}-[dV]TV[dV][dP][Orn][d(aIle)][d(aThr)][d(aIle)][dV][Phg][Dhb]V; ester 8-C)
// result 1

// query Below 2000 nM on CC50? Entry C/C=C1\NC(=O)[C@H](CCC2CCCCC2)NC(=O)[C@@H](C(C)C)NC(=O)[C@@H]([C@@H](C)CC)NC(=O)[C@H](NC(=O)[C@H](NC(=O)[C@H](CCCN)NC(=O)[C@H]2CCCN2C(=O)[C@H](NC(=O)[C@@H](NC(=O)[C@@H](NC(=O)[C@H](NC(=O)CCCC(C)C)C(C)C)[C@@H](C)O)C(C)C)C(C)C)[C@@H](C)CC)[C@@H](C)OC(=O)[C@H](C(C)C)NC1=O [Compound 63] ({Hexanoyl(5-Me)}-[dV]TV[dV][dP][Orn][d(aIle)][d(aThr)][d(aIle)][dV][hCha][Dhb]V; ester 8-C)
// result -1
